Values from ChEMBL document CHEMBL1140284

pKi, 5-hydroxytryptamine receptor 6 (Homo sapiens), per-entry values.
Field pKi (float): negative decimal logarithm of the concentration in molar.

[
  {
    "structure string": "COc1cccc2c(CCN)cn(S(=O)(=O)c3ccc4ccccc4c3)c12",
    "meas value": 8.30
  }
]

Identify measured pKi associated with CC[N+](C)(CC)CCc1cn(S(=O)(=O)c2ccc(NC(C)=O)cc2)c2ccc(OC)cc12
6.60

Identify measured pKi associated with COc1cccc(-c2noc(-c3[nH]c4ccccc4c3CCN)n2)c1
8.90

Identify pKi associated with the compound COc1ccc(NS(=O)(=O)c2cccc(I)c2)cc1N1CCNCC1
9.10

Return pKi (reported value) for this compound: Nc1ccc(S(=O)(=O)Nc2cccc3[nH]ccc23)cc1
7.20

Tell me measured pKi for O=S(=O)(Nc1ccc2ccn(CCN3CCCC3)c2c1)c1c(Cl)nc2sccn12 please.
7.30

Assign pKi to the following record: Nc1ccc(S(=O)(=O)n2c3c(c4ccccc42)CCCC3)cc1
7.50
